Just for reference, patent US9040528B2 is where these values come from.

The entries below come with measured pIC50 values attached.
target: Escherichia coli DNA gyrase A/B tetramer (Escherichia coli (strain K12), UniProt P0AES4+P0AES6); test: DNA gyrase supercoiling activity fluorescence polarisation assay; format: biochemical; conditions: 5 nM enzyme, relaxed plasmid, 0.3 mM ATP, ambient temperature; read-out: E. coli DNA gyrase supercoiling IC50
pIC50 field: float, defined as -log10 of concentration (mol/L).

// pIC50 lookup, key: C[C@@H]1CN2c3c(nc4c(-c5cncs5)noc4c3Cl)CC3(C(=O)NC(=O)NC3=O)[C@H]2[C@H](C)O1 (relative stereo)
5.96

Further cases:
// pIC50 lookup, key: C[C@@H]1CN2c3c(cc4c(C(=O)N5CCS(=O)(=O)CC5)noc4c3F)CC3(C(=O)NC(=O)NC3=O)[C@H]2[C@H](C)O1 (relative stereo)
5.28

What do you have for C[C@@H]1CN2c3c(cc4c(S(C)(=O)=O)noc4c3F)CC3(C(=O)NC(=O)NC3=O)[C@H]2[C@H](C)O1 (relative stereo) ?
5.62

What do you have for COCc1noc2c(Cl)c3c(cc12)CC1(C(=O)NC(=O)NC1=O)[C@H]1[C@H](C)O[C@H](C)CN31 (relative stereo) ?
5.77

What do you have for CC(C)NC(=O)c1noc2c(F)c3c(cc12)CC1(C(=O)NC(=O)NC1=O)[C@H]1[C@H](C)O[C@H](C)CN31 (relative stereo) [Example 147] ?
5.41

What do you have for C[C@@H]1CN2c3c(cc4c(NCc5c[nH]cn5)noc4c3F)CC3(C(=O)NC(=O)NC3=O)[C@H]2[C@H](C)O1 (relative stereo) ?
6.10

###

molecular target: Escherichia coli DNA gyrase A/B tetramer (Escherichia coli (strain K12), UniProt P0AES4+P0AES6); assay: DNA gyrase supercoiling activity fluorescence polarisation assay; assay type: biochemical; details: 5 nM enzyme, relaxed plasmid, 0.3 mM ATP, ambient temperature; read-out: E. coli DNA gyrase supercoiling IC50
The entries below come with measured IC50 values attached.
Report only the number, with the unit µM understood.

# example entries with known answers
// IC50 lookup, key: C[C@@H]1CN2c3c(cc4c(-c5nccs5)noc4c3Cl)CC3(C(=O)NC(=O)NC3=O)[C@H]2[C@H](C)O1 (relative stereo)
1

What do you have for CNC(=O)c1cnn(-c2noc3c(F)c4c(cc23)CC2(C(=O)NC(=O)NC2=O)[C@H]2[C@H](C)O[C@H](C)CN42)c1 (relative stereo) ?
2.7

Further cases:
// IC50 lookup, key: C[C@@H]1CN2c3c(nc4c(-c5ccccn5)noc4c3Cl)CC3(C(=O)NC(=O)NC3=O)[C@H]2[C@H](C)O1 (relative stereo)
1.4

###

biological target: Escherichia coli DNA gyrase A/B tetramer (Escherichia coli (strain K12), UniProt P0AES4+P0AES6); assay: DNA gyrase supercoiling activity fluorescence polarisation assay; type: biochemical; details: 5 nM enzyme, relaxed plasmid, 0.3 mM ATP, ambient temperature; read-out: E. coli DNA gyrase supercoiling IC50
The entries below come with measured pIC50 values attached.
pIC50 field: float, defined as -log10 of concentration (mol/L).

# example entries with known answers
// pIC50 lookup, key: C[C@@H]1CN2c3c(cc4c(C5CCOCC5)noc4c3F)CC3(C(=O)NC(=O)NC3=O)[C@H]2[C@H](C)O1 (relative stereo)
5.39

What do you have for C[C@@H]1CN2c3c(nc4c(-c5nccs5)noc4c3Cl)CC3(C(=O)NC(=O)NC3=O)[C@H]2[C@H](C)O1 [Example 111(b)] ?
5.96

What do you have for CC(C)NC(=O)c1noc2c(F)c3c(cc12)CC1(C(=O)NC(=O)NC1=O)[C@H]1[C@H](C)O[C@H](C)CN31 [Example 147(a)] ?
6.05

What do you have for C[C@@H]1CN2c3c(cc4c(C(F)F)noc4c3F)CC3(C(=O)NC(=O)NC3=O)[C@H]2[C@H](C)O1 [Example 93(b)] ?
6.40

What do you have for `C[C@@H]1CN2c3c(cc4c(-c5ccnc(O)n5)noc4c3F)CC3(C(=O)NC(=O)NC3=O)[C@H]2[C@H](C)O1` ?
6.05

Further cases:
// pIC50 lookup, key: CCNC(=O)c1noc2c(F)c3c(cc12)CC1(C(=O)NC(=O)NC1=O)[C@H]1[C@H](C)O[C@H](C)CN31 (racemic)
5.77

What do you have for C[C@@H]1CN2c3c(nc4c(C(=O)NCc5ccc(C#N)cc5)noc4c3Cl)CC3(C(=O)NC(=O)NC3=O)[C@H]2[C@H](C)O1 (relative stereo) ?
5.11

What do you have for `COc1cncc(-c2noc3c(F)c4c(cc23)CC2(C(=O)NC(=O)NC2=O)[C@H]2[C@H](C)O[C@H](C)CN42)n1` ?
5.96

What do you have for Cc1cc(C(F)F)nn1-c1noc2c(F)c3c(cc12)CC1(C(=O)NC(=O)NC1=O)[C@H]1[C@H](C)O[C@H](C)CN31 (relative stereo) ?
5.27

What do you have for C[C@@H]1CN2c3c(cc4c(-n5ccnc5)noc4c3F)CC3(C(=O)NC(=O)NC3=O)[C@H]2[C@H](C)O1 (relative stereo) ?
6.30

What do you have for `C[C@@H]1CN2c3c(cc4c(-c5cnc(N6CCOCC6)cn5)noc4c3F)CC3(C(=O)NC(=O)NC3=O)[C@@H]2[C@@H](C)O1` ?
4.08

What do you have for C[C@@H]1CN2c3c(cc4c(-c5cnccn5)noc4c3F)CC3(C(=O)NC(=O)NC3=O)[C@H]2[C@H](C)O1 (relative stereo) [Example 165] ?
6.40

What do you have for Cc1ncsc1-c1noc2c(F)c3c(cc12)CC1(C(=O)NC(=O)NC1=O)[C@@H]1[C@@H](C)O[C@@H](C)CN31 (relative stereo) ?
6.05

###

target: Escherichia coli DNA gyrase A/B tetramer (Escherichia coli (strain K12), UniProt P0AES4+P0AES6); assay: DNA gyrase supercoiling activity fluorescence polarisation assay; format: biochemical; details: 5 nM enzyme, relaxed plasmid, 0.3 mM ATP, ambient temperature; read-out: E. coli DNA gyrase supercoiling IC50
The entries below come with measured pIC50 values attached.
pIC50 field: float, defined as -log10 of concentration (mol/L).

// pIC50 lookup, key: CSc1cnc(-c2noc3c(F)c4c(cc23)CC2(C(=O)NC(=O)NC2=O)[C@H]2[C@H](C)O[C@H](C)CN42)cn1 (relative stereo)
5.77

What do you have for C[C@@H]1CN2c3c(cc4c(-c5ccccn5)noc4c3Cl)CC3(C(=O)NC(=O)NC3=O)[C@H]2[C@H](C)O1 (relative stereo) ?
6.10

What do you have for C[C@@H]1CN2c3c(cc4c(C(=O)NCC5CC5)noc4c3F)CC3(C(=O)NC(=O)NC3=O)[C@H]2[C@H](C)O1 (relative stereo) ?
5.68

What do you have for C[C@@H]1CN2c3c(cc4c(C(=O)N5CCN(C)C(=O)C5)noc4c3F)CC3(C(=O)NC(=O)NC3=O)[C@H]2[C@H](C)O1 (relative stereo) ?
5.31

Further cases:
// pIC50 lookup, key: COC[C@@H]1CN2c3c(cc4c(C)noc4c3F)CC3(C(=O)NC(=O)NC3=O)[C@H]2[C@H](C)O1 (relative stereo)
5.96

###

target: Escherichia coli DNA gyrase A/B tetramer (Escherichia coli (strain K12), UniProt P0AES4+P0AES6); test: DNA gyrase supercoiling activity fluorescence polarisation assay; assay type: biochemical; conditions: 5 nM enzyme, relaxed plasmid, 0.3 mM ATP, ambient temperature; read-out: E. coli DNA gyrase supercoiling IC50
The entries below come with measured pIC50 values attached.
pIC50 field: float, defined as -log10 of concentration (mol/L).

// pIC50 lookup, key: C[C@@H]1CN2c3c(cc4c(-c5cncs5)noc4c3Cl)CC3(C(=O)NC(=O)NC3=O)[C@H]2[C@H](C)O1 (relative stereo)
6.10

What do you have for `CSc1nccc(-c2noc3c(F)c4c(cc23)CC2(C(=O)NC(=O)NC2=O)[C@H]2[C@H](C)O[C@H](C)CN42)n1` ?
6.22

Further cases:
// pIC50 lookup, key: C[C@@H]1CN2c3c(cc4c(N)noc4c3F)CC3(C(=O)NC(=O)NC3=O)[C@H]2[C@H](C)O1 (relative stereo)
6.30

What do you have for C[C@H]1CN2c3c(cc4c(-c5cccnn5)noc4c3F)CC3(C(=O)NC(=O)NC3=O)[C@@H]2[C@@H](C)O1 (relative stereo) ?
6.30

What do you have for C[C@@H]1CN2c3c(cc4c(-n5cnc(C#N)n5)noc4c3F)CC3(C(=O)NC(=O)NC3=O)[C@H]2[C@H](C)O1 (relative stereo) ?
5.59

What do you have for `C[C@@H]1CN2c3c(cc4c(-c5cnc(N6CCOCC6)cn5)noc4c3F)CC3(C(=O)NC(=O)NC3=O)[C@H]2[C@H](C)O1` ?
5.16

What do you have for `COc1nccc(-c2noc3c(F)c4c(cc23)CC2(C(=O)NC(=O)NC2=O)[C@H]2[C@H](C)O[C@H](C)CN42)n1` ?
6.05

What do you have for C[C@@H]1CN2c3c(cc4c(-c5ncccn5)noc4c3Cl)CC3(C(=O)NC(=O)NC3=O)[C@H]2[C@H](C)O1 (racemic) ?
5.92

What do you have for C[C@@H]1CN2c3c(cc4c(-c5ccccn5)noc4c3F)CC3(C(=O)NC(=O)NC3=O)[C@H]2[C@H](C)O1 (relative stereo) ?
6.70

What do you have for COC1CCN(C(=O)c2noc3c(F)c4c(cc23)CC2(C(=O)NC(=O)NC2=O)[C@H]2[C@H](C)O[C@H](C)CN42)CC1 (relative stereo) ?
5.26

What do you have for C[C@@H]1CN2c3c(nc4c(C(=O)N5CC(F)(F)C5)noc4c3Cl)CC3(C(=O)NC(=O)NC3=O)[C@H]2[C@H](C)O1 (relative stereo) ?
4.52

What do you have for `Cc1noc2c(F)c3c(cc12)CC1(C(=O)NC(=O)NC1=O)[C@@H]1[C@@H](C)O[C@@H](C)CN31` ?
4.08
